Target: TAS2R31 (Homo sapiens)
Sequence (P59538 whole entry): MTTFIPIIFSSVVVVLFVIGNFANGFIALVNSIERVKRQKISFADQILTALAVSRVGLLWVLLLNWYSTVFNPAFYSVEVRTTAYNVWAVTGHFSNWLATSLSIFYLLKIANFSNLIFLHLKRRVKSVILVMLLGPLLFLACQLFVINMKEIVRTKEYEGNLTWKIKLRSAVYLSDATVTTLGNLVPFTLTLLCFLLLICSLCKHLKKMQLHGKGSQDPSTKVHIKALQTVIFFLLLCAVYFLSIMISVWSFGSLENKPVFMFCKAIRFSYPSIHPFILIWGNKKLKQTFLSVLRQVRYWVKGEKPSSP
Experiment: Calcium mobilization assay, HEK293T-Gα16gust44 cells expressing TAS2R31
Conditions: maximal concentration tested: sucralose 100 mM, neotame 30 µM, Ace-K 300 mM, RebA 4 mM, RebM 4 mM, mogroside V 5 mM, erythritol 200 mM, D-allulose 500 mM, thaumatin 100 mM
property_label: Response of TAS2R31

C[C@H](CC[C@@H](O[C@@H]1O[C@H](CO[C@@H]2O[C@H](CO)[C@@H](O)[C@H](O)[C@H]2O)[C@@H](O)[C@H](O)[C@H]1O[C@@H]1O[C@H](CO)[C@@H](O)[C@H](O)[C@H]1O)C(C)(C)O)[C@H]1CC[C@@]2(C)[C@@H]3CC=C4[C@@H](CC[C@H](O[C@@H]5O[C@H](CO[C@@H]6O[C@H](CO)[C@@H](O)[C@H](O)[C@H]6O)[C@@H](O)[C@H](O)[C@H]5O)C4(C)C)[C@]3(C)[C@H](O)C[C@]12C [Mogroside V, mogroside V] :: −
C=C1C[C@@]23CC[C@H]4[C@@](C)(CCC[C@@]4(C)C(=O)O[C@@H]4O[C@H](CO)[C@@H](O)[C@H](O[C@@H]5O[C@H](CO)[C@@H](O)[C@H](O)[C@H]5O)[C@H]4O[C@@H]4O[C@H](CO)[C@@H](O)[C@H](O)[C@H]4O)[C@@H]2CC[C@]1(O[C@@H]1O[C@H](CO)[C@@H](O)[C@H](O[C@@H]2O[C@H](CO)[C@@H](O)[C@H](O)[C@H]2O)[C@H]1O[C@@H]1O[C@H](CO)[C@@H](O)[C@H](O)[C@H]1O)C3 [RebM, Rebaudioside M] :: −
CC1=CC(=O)NS(=O)(=O)O1 [Ace-K, acesulfame-K] :: #^b
OC[C@@H](O)[C@@H](O)CO [Erythritol, erythritol] :: −

Reference for the values: paper PMC11631053
